Taken from ChEMBL document CHEMBL4251692.

- measured.on: Glycogen synthase kinase-3 beta (Homo sapiens)
- Sequence (P49841 whole entry): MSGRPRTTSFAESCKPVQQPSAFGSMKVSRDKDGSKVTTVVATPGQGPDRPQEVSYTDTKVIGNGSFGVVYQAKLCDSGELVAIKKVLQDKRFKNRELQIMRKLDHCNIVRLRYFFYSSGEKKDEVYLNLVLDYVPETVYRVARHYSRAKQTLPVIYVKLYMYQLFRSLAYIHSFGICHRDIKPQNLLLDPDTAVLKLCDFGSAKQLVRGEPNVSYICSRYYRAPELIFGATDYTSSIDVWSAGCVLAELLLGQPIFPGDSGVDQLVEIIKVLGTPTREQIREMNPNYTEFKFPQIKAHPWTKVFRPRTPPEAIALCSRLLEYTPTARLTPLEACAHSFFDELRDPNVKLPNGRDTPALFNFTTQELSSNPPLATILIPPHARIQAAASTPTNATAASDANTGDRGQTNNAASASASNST
- measurement.protocol: Inhibition of recombinant human full length N-terminal GST-tagged GSK-3beta expressed in Sf9 insect cells using prephosphorylated polypeptide as substrate after 30 mins by kinase-Glo reagent based luminescence assay
pIC50: −log10 of the molar value.
metric: pIC50

1) COc1nc(-c2ccnc(NC(=O)C3CC3)c2)sc1C(=O)NCCNc1c2c(nc3cc(Cl)ccc13)CCCC2 = 7.20
2) COc1nc(-c2ccnc(NC(=O)C3CC3)c2)sc1C(=O)NCCCNc1c2c(nc3ccccc13)CCCC2 = 7.18
3) COc1nc(-c2ccnc(NC(=O)C3CC3)c2)sc1C(=O)NCCCNc1c2c(nc3cc(Cl)ccc13)CCCC2 = 7.01

---

pIC50: −log10 of the molar value.
// each record: one item and its pIC50 for Acetylcholinesterase (Homo sapiens, UniProt P22303)
metric: pIC50

1) NC(=O)c1sc(-c2ccnc(NC(=O)C3CC3)c2)nc1OCCNc1c2c(nc3ccccc13)CCCC2 = 6.52
2) COc1nc(-c2ccnc(NC(=O)C3CC3)c2)sc1C(=O)NCCCNc1c2c(nc3ccccc13)CCCC2 = 8.19
3) COc1nc(-c2ccnc(NC(=O)C3CC3)c2)sc1C(=O)NCCNc1c2c(nc3cc(Cl)ccc13)CCCC2 = 8.68
4) COc1nc(-c2ccnc(NC(=O)C3CC3)c2)sc1C(=O)NCCCNc1c2c(nc3cc(Cl)ccc13)CCCC2 = 8.44
5) COc1ccc2nc3c(c(NCCCNC(=O)c4sc(-c5ccnc(NC(=O)C6CC6)c5)nc4OC)c2c1)CCCC3 = 7.42
6) COc1nc(-c2ccnc(NC(=O)C3CC3)c2)sc1C(=O)NCCNc1c2c(nc3ccccc13)CCCC2 = 8.20
7) COc1ccc2nc3c(c(NCCNC(=O)c4sc(-c5ccnc(NC(=O)C6CC6)c5)nc4OC)c2c1)CCCC3 = 7.64
8) COC(=O)c1sc(-c2ccnc(NC(=O)C3CC3)c2)nc1OCCNc1c2c(nc3ccccc13)CCCC2 = 6.89

---

- System: SH-SY5Y
- measurement.protocol: Cytotoxicity against human SH-SY5Y cells assessed as reduction in cell viability after 48 hrs by MTT assay
- Type: cell-based
pIC50: −log10 of the molar value.
metric: pIC50

1. O=C(O)c1sc(-c2ccnc(NC(=O)C3CC3)c2)nc1OCCNc1c2c(nc3ccccc13)CCCC2 = 4.68
2. COc1nc(-c2ccnc(NC(=O)C3CC3)c2)sc1C(=O)NCCCNc1c2c(nc3cc(Cl)ccc13)CCCC2 = 5.51
3. COc1nc(-c2ccnc(NC(=O)C3CC3)c2)sc1C(=O)NCCCCCCNc1c2c(nc3ccccc13)CCCC2 = 4.52
4. NC(=O)c1sc(-c2ccnc(NC(=O)C3CC3)c2)nc1OCCNc1c2c(nc3ccccc13)CCCC2 = 4.72
5. COC(=O)c1sc(-c2ccnc(NC(=O)C3CC3)c2)nc1OCCNc1c2c(nc3ccccc13)CCCC2 = 4.89
6. COc1nc(-c2ccnc(NC(=O)C3CC3)c2)sc1C(=O)NCCCNc1c2c(nc3ccccc13)CCCC2 = 4.74
7. COc1ccc2nc3c(c(NCCCNC(=O)c4sc(-c5ccnc(NC(=O)C6CC6)c5)nc4OC)c2c1)CCCC3 = 5.54

---

- measured.on: UniProt P49841
- measurement.protocol: Inhibition of recombinant human full length N-terminal GST-tagged GSK-3beta expressed in Sf9 insect cells using prephosphorylated polypeptide as substrate after 30 mins by kinase-Glo reagent based luminescence assay
I'd appreciate it if you marked entries 1 when IC50 is lower than 0.07 µM and -1 when it is not.

1. O=C(O)c1sc(-c2ccnc(NC(=O)C3CC3)c2)nc1OCCNc1c2c(nc3ccccc13)CCCC2 = -1
2. COc1ccc2nc3c(c(NCCNC(=O)c4sc(-c5ccnc(NC(=O)C6CC6)c5)nc4OC)c2c1)CCCC3 = -1
3. COC(=O)c1sc(-c2ccnc(NC(=O)C3CC3)c2)nc1OCCNc1c2c(nc3ccccc13)CCCC2 = -1
4. COc1ccc2nc3c(c(NCCCNC(=O)c4sc(-c5ccnc(NC(=O)C6CC6)c5)nc4OC)c2c1)CCCC3 = 1
5. NC(=O)c1sc(-c2ccnc(NC(=O)C3CC3)c2)nc1OCCNc1c2c(nc3ccccc13)CCCC2 = 1
6. CCOC(=O)c1sc(-c2ccnc(NC(=O)C3CC3)c2)nc1OCCNc1c2c(nc3ccccc13)CCCC2 = -1
7. COc1nc(-c2ccnc(NC(=O)C3CC3)c2)sc1C(=O)NCCCCCCNc1c2c(nc3ccccc13)CCCC2 = 1

---

pIC50: −log10 of the molar value.
// Acetylcholinesterase (Homo sapiens) pIC50 records
metric: pIC50

1. O=C(O)c1sc(-c2ccnc(NC(=O)C3CC3)c2)nc1OCCNc1c2c(nc3ccccc13)CCCC2 = 6.24
2. COc1nc(-c2ccnc(NC(=O)C3CC3)c2)sc1C(=O)NCCCCCCNc1c2c(nc3ccccc13)CCCC2 = 7.66
3. CCOC(=O)c1sc(-c2ccnc(NC(=O)C3CC3)c2)nc1OCCNc1c2c(nc3ccccc13)CCCC2 = 6.51

---

Each entry below carries its reported pIC50.
- measured.on: Cholinesterase (Equus caballus, UniProt P81908)
- Sequence (P81908 whole entry): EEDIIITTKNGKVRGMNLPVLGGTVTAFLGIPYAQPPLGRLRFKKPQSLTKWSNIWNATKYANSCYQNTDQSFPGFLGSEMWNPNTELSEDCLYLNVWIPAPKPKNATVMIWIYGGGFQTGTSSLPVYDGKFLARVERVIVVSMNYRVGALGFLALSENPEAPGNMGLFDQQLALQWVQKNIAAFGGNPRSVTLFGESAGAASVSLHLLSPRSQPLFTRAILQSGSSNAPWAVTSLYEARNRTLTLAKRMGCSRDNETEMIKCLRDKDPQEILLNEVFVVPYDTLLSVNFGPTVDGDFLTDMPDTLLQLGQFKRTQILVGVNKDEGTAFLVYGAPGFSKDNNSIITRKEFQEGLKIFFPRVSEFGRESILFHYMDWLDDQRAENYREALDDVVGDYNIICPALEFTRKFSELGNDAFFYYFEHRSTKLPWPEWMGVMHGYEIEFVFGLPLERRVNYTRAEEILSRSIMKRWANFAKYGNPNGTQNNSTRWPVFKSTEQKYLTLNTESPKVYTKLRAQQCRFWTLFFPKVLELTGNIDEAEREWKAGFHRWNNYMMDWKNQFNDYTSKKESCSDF
- measurement.protocol: Inhibition of horse serum BuChE using butyrylthiocholine iodide as substrate incubated for 5 mins followed by substrate addition measured after 2 mins by Ellman's method
pIC50: −log10 of the molar value.
metric: pIC50

1. COc1ccc2nc3c(c(NCCCNC(=O)c4sc(-c5ccnc(NC(=O)C6CC6)c5)nc4OC)c2c1)CCCC3 = 5.64
2. COc1ccc2nc3c(c(NCCNC(=O)c4sc(-c5ccnc(NC(=O)C6CC6)c5)nc4OC)c2c1)CCCC3 = 5.68
3. COc1nc(-c2ccnc(NC(=O)C3CC3)c2)sc1C(=O)NCCCNc1c2c(nc3cc(Cl)ccc13)CCCC2 = 6.54
4. COc1nc(-c2ccnc(NC(=O)C3CC3)c2)sc1C(=O)NCCNc1c2c(nc3cc(Cl)ccc13)CCCC2 = 6.39

---

- Tested on: SH-SY5Y
- measurement.protocol: Cytotoxicity against human SH-SY5Y cells assessed as reduction in cell viability after 48 hrs by MTT assay
- Format: cell-based
pIC50: −log10 of the molar value.
metric: pIC50

1) COc1nc(-c2ccnc(NC(=O)C3CC3)c2)sc1C(=O)NCCNc1c2c(nc3cc(Cl)ccc13)CCCC2 = 5.64
2) COc1nc(-c2ccnc(NC(=O)C3CC3)c2)sc1C(=O)NCCNc1c2c(nc3ccccc13)CCCC2 = 5.20
3) COc1ccc2nc3c(c(NCCNC(=O)c4sc(-c5ccnc(NC(=O)C6CC6)c5)nc4OC)c2c1)CCCC3 = 5.05
4) CCOC(=O)c1sc(-c2ccnc(NC(=O)C3CC3)c2)nc1OCCNc1c2c(nc3ccccc13)CCCC2 = 5.15

---

- measured.on: Cholinesterase (Homo sapiens, UniProt P06276)
- Sequence (P06276 whole entry): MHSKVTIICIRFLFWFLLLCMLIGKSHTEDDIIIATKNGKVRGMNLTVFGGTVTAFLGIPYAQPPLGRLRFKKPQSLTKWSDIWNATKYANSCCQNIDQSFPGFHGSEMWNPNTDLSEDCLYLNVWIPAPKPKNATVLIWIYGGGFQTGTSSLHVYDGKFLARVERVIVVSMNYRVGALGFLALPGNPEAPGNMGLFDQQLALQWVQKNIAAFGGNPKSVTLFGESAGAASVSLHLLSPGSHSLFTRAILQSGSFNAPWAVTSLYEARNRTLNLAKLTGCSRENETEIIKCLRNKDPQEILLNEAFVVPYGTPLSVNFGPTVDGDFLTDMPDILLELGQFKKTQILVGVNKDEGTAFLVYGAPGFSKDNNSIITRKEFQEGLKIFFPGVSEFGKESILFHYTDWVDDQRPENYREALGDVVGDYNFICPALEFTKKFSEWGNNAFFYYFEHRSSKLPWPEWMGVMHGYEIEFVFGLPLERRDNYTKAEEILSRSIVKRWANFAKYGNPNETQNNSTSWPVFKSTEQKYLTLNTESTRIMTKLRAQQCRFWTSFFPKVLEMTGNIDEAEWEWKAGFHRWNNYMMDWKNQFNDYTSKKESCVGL
# strict inequality: IC50 < 300 nM yields TRUE, everything else yields FALSE

1. O=C(O)c1sc(-c2ccnc(NC(=O)C3CC3)c2)nc1OCCNc1c2c(nc3ccccc13)CCCC2 = FALSE
2. COc1nc(-c2ccnc(NC(=O)C3CC3)c2)sc1C(=O)NCCCCCCNc1c2c(nc3ccccc13)CCCC2 = TRUE
3. COc1nc(-c2ccnc(NC(=O)C3CC3)c2)sc1C(=O)NCCNc1c2c(nc3ccccc13)CCCC2 = TRUE
4. COC(=O)c1sc(-c2ccnc(NC(=O)C3CC3)c2)nc1OCCNc1c2c(nc3ccccc13)CCCC2 = TRUE
5. CCOC(=O)c1sc(-c2ccnc(NC(=O)C3CC3)c2)nc1OCCNc1c2c(nc3ccccc13)CCCC2 = FALSE
6. COc1nc(-c2ccnc(NC(=O)C3CC3)c2)sc1C(=O)NCCCNc1c2c(nc3ccccc13)CCCC2 = TRUE
7. NC(=O)c1sc(-c2ccnc(NC(=O)C3CC3)c2)nc1OCCNc1c2c(nc3ccccc13)CCCC2 = TRUE
